meta.source: the supplement of paper PMC10126150

# switch fluorescence ratio annotations
- System: ATP;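 note: ATP exposure 15 min at 22 °C before imaging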
- testName: switch fluorescence ratio, 500 uM ATP over buffer (Cy3 cluster intensity, sum of 5 cycles each) (fold (ratio)); higher = stronger signal-on switching upon ATP binding; sequences stand for … in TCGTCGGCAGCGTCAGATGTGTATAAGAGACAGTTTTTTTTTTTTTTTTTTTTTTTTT…TC
- reportedConditions: aptamer strand: ATP DNA aptamer (quencher-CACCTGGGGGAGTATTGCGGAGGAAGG + anchor), 100 nM annealed; ATP concentration: 500 uM
measuredParameter: switch fluorescence ratio

| constructSequence | studyTarget | measuredParameter | result |
| --- | --- | --- | --- |
| AGGGTTCTGG | ATP | switch fluorescence ratio | 0.971 |
| GGCTGCATGC | ATP | switch fluorescence ratio | 1.08 |
| GGGTGGGGGT | ATP | switch fluorescence ratio | 1.03 |
| GTATAAGGGG | ATP | switch fluorescence ratio | 0.977 |
| GCATTGAAGC | ATP | switch fluorescence ratio | 0.995 |
| GGTTGGTTGT | ATP | switch fluorescence ratio | 1.15 |
| AGGTATGCGT | ATP | switch fluorescence ratio | 0.985 |
| TAGGTGCAGG | ATP | switch fluorescence ratio | 1.08 |
| TCGTTATTAA | ATP | switch fluorescence ratio | 1 |
| TAGGCTGCGA | ATP | switch fluorescence ratio | 1.04 |
| GCTTCTGCGT | ATP | switch fluorescence ratio | 1.02 |
| CTGGGGTAGT | ATP | switch fluorescence ratio | 1.03 |
| GCTATTTTTG | ATP | switch fluorescence ratio | 0.999 |
| TAGAATTTTT | ATP | switch fluorescence ratio | 0.998 |
| TGGTTTGGGT | ATP | switch fluorescence ratio | 0.986 |
| AACCTTATTT | ATP | switch fluorescence ratio | 0.997 |
| CCTGGCATGC | ATP | switch fluorescence ratio | 2.56 |
| GGTGTGGTGA | ATP | switch fluorescence ratio | 1.06 |
| TTATCCTGGG | ATP | switch fluorescence ratio | 1.01 |
| GAACCAGTGC | ATP | switch fluorescence ratio | 1.23 |
| GATACTGTTG | ATP | switch fluorescence ratio | 0.988 |
| AAACTGCTCC | ATP | switch fluorescence ratio | 1.52 |
| ATTGGTCAAG | ATP | switch fluorescence ratio | 0.985 |
| AAGTATGGGA | ATP | switch fluorescence ratio | 1.02 |
| AAATACACGA | ATP | switch fluorescence ratio | 1.06 |
| ATTTGGATCT | ATP | switch fluorescence ratio | 0.973 |
| GGGCATAGGT | ATP | switch fluorescence ratio | 0.982 |
| GCTAACCGGG | ATP | switch fluorescence ratio | 1 |
| TTTGAAAGTG | ATP | switch fluorescence ratio | 0.999 |
| ACGTTATTTA | ATP | switch fluorescence ratio | 1.15 |
| ACGGAGCGGG | ATP | switch fluorescence ratio | 1.35 |
| CGTGTACTTA | ATP | switch fluorescence ratio | 1.03 |
| TGCAGATTTC | ATP | switch fluorescence ratio | 0.998 |
| ATTAGGGAAT | ATP | switch fluorescence ratio | 0.976 |
| GAAGGTTTGT | ATP | switch fluorescence ratio | 1 |
| GGCGGTGTGG | ATP | switch fluorescence ratio | 0.981 |
| CATAATCAGG | ATP | switch fluorescence ratio | 1.04 |
| GGGGGCAGGA | ATP | switch fluorescence ratio | 0.987 |
| ATGGCCGGTT | ATP | switch fluorescence ratio | 1.04 |
| TAGGTATGGG | ATP | switch fluorescence ratio | 0.995 |
| TGCAAGAAGG | ATP | switch fluorescence ratio | 0.983 |
| GGGAGTCCCA | ATP | switch fluorescence ratio | 0.997 |
| TTAGGCGGCA | ATP | switch fluorescence ratio | 0.974 |
| AAGGTTAATT | ATP | switch fluorescence ratio | 1 |
| ATTAGAAGAC | ATP | switch fluorescence ratio | 1 |
| TTTGTGTCAC | ATP | switch fluorescence ratio | 0.984 |
| TAATAGTTCT | ATP | switch fluorescence ratio | 1.01 |
| GTGGTGGGAC | ATP | switch fluorescence ratio | 0.972 |
| GGGCCCTGGT | ATP | switch fluorescence ratio | 1.01 |
| ATACGTAGTC | ATP | switch fluorescence ratio | 1.07 |
| AAGGCGGGTG | ATP | switch fluorescence ratio | 1.01 |
| AGCGAGAGGG | ATP | switch fluorescence ratio | 0.974 |
| ATTGCGATTC | ATP | switch fluorescence ratio | 1.16 |
| TTTGTGGGGA | ATP | switch fluorescence ratio | 1 |
| ATGACGCCTG | ATP | switch fluorescence ratio | 1 |
| GCCGAGCTCT | ATP | switch fluorescence ratio | 0.996 |
| ACGGCTCTGG | ATP | switch fluorescence ratio | 1.01 |
| TGAATGGGCA | ATP | switch fluorescence ratio | 0.973 |
| ACTTAGGGGA | ATP | switch fluorescence ratio | 1.02 |
| AATGAGTTTT | ATP | switch fluorescence ratio | 0.998 |
| TTATTTAGTT | ATP | switch fluorescence ratio | 1.01 |
| GGGGTAGCTG | ATP | switch fluorescence ratio | 0.962 |
| GAGGATAGGT | ATP | switch fluorescence ratio | 0.98 |
| TTTTCCAGTT | ATP | switch fluorescence ratio | 0.998 |
| GCAGATTGGC | ATP | switch fluorescence ratio | 1.03 |
| TCATACCATT | ATP | switch fluorescence ratio | 1 |
| CACAGTTACC | ATP | switch fluorescence ratio | 1.24 |
| TTTCGGTAGT | ATP | switch fluorescence ratio | 0.995 |
| AGGGGTGCGC | ATP | switch fluorescence ratio | 0.989 |
| AGTAAGCGAC | ATP | switch fluorescence ratio | 1.06 |
| GGTCGTAGCC | ATP | switch fluorescence ratio | 0.972 |
| GCGGGTGGGG | ATP | switch fluorescence ratio | 1.05 |
| AACAGTGAAA | ATP | switch fluorescence ratio | 1.02 |
| TGTTGGACTA | ATP | switch fluorescence ratio | 0.999 |
| AAGGTCTTTG | ATP | switch fluorescence ratio | 1.01 |
| TTTAGTTGAC | ATP | switch fluorescence ratio | 0.996 |
| CGAGCAGAGT | ATP | switch fluorescence ratio | 1.13 |
| GCGATACGCA | ATP | switch fluorescence ratio | 1.07 |
| AGAGGATGAT | ATP | switch fluorescence ratio | 0.962 |
| GGAGGGCTCG | ATP | switch fluorescence ratio | 0.981 |
| TTTAGTTTG | ATP | switch fluorescence ratio | 1 |
| TTGGGAGGCT | ATP | switch fluorescence ratio | 1 |
| TGGCTGCCGT | ATP | switch fluorescence ratio | 0.988 |
| TAATGCGTTT | ATP | switch fluorescence ratio | 0.98 |
| TTTAAAACCA | ATP | switch fluorescence ratio | 1 |
| TAATCACGTC | ATP | switch fluorescence ratio | 1.04 |

====

# switch fluorescence ratio annotations
- Tested on: ATP;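 note: ATP exposure 15 min at 22 °C before imaging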
- testName: switch fluorescence ratio, 500 uM ATP over buffer (Cy3 cluster intensity, sum of 5 cycles each) (fold (ratio)); higher = stronger signal-on switching upon ATP binding; sequences stand for … in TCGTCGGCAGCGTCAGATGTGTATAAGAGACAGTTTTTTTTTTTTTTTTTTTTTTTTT…TC
- reportedConditions: aptamer strand: ATP DNA aptamer (quencher-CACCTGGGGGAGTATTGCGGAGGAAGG + anchor), 100 nM annealed; ATP concentration: 500 uM

| constructSequence | studyTarget | switch fluorescence ratio |
| --- | --- | --- |
| CCCATGCTTA | ATP | 1.05 |
| TTAATTCCAG | ATP | 1.01 |
| TGTTTTGTTG | ATP | 0.99 |
| GCATTTGGCT | ATP | 1.03 |
| GGATTGCCGA | ATP | 1.01 |
| CGAAGTTTGG | ATP | 1.02 |
| GCAGGAAGAG | ATP | 1.02 |
| GTGTATAGCA | ATP | 1.03 |
| ATTGAAGGGG | ATP | 0.975 |
| ATAGTTTTCG | ATP | 1 |
| AGGCGAGGGA | ATP | 1.02 |
| AACTCGGAAT | ATP | 1.03 |
| AAAAGAGGGT | ATP | 1.03 |
| GGCTAGGTGC | ATP | 1.24 |
| TTCGAGATCT | ATP | 1.16 |
| AGTTCCATCG | ATP | 1.05 |
| AGCCAGAAGT | ATP | 0.991 |
| TAGAAGGAAT | ATP | 1.05 |
| ATTCATGATA | ATP | 0.975 |
| TAAAATCCTG | ATP | 1.05 |
